# Test system: tracheal specimens excised from guinea pigs
# test.name: Inhibitory effect on PGF2α-induced contraction of tracheal specimens excised from guinea pigs
# Type: cell-based, guinea pig
# condition.description: Cavia porcellus; dose relaxing PGF2α (final 1 μm)-induced contraction to 50%; n=3; non-salt compounds used as hydrochloride; read-out: PGF2α-induced contraction ED50 (Table 18)
experimental.endpoint: EC50

[[record]]
sample_smiles = "Cn1c(=O)c2[nH]cnc2n(C)c1=O"
experimental_endpoint = "EC50"
result = "≥ 200 µM"

